assay-method-text: plasma trough level of itraconazole required for clinical benefit, and side effects of high doses, in humans with cancer
Type: in vivo
condition-set: human, plasma; after 4 weeks of therapy, humans with cancer; read-out: minimum plasma trough level required to have a clinically significant effect

| compound | concentration at 4 weeks |
| --- | --- |
| CCC(C)n1ncn(-c2ccc(N3CCN(c4ccc(OCC5COC(Cn6cncn6)(c6ccc(Cl)cc6Cl)O5)cc4)CC3)cc2)c1=O (stereo not shown) [itraconazole] | ≥ 1000 ng/mL |
